- target.under.test: UCHL5 Ubiquitin carboxyl-terminal hydrolase isozyme L5 (Homo sapiens, UniProt Q9Y5K5)
- Construct: endogenous in cells; host or cells: MDA-MB-231 (soluble fraction of lysate)
- Sequence (Q9Y5K5 whole entry): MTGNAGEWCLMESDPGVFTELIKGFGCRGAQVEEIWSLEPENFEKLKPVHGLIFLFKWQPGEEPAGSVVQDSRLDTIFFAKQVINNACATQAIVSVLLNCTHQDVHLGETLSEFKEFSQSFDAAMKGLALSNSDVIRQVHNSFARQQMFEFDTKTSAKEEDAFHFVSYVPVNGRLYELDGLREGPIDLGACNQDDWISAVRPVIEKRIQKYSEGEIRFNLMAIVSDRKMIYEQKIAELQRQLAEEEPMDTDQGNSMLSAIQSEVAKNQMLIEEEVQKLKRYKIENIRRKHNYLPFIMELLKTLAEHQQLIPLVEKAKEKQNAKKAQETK
- measurement.notes: competitive isoTOP-ABPP
- Assay type: binding
- condition: 50 uM, 231 sol, in vitro
readout.kind: isoTOP-ABPP reactivity ratio at lysine Q9Y5K5_K323
Give bare numbers.

O=C(Oc1ccc([N+](=O)[O-])cc1[N+](=O)[O-])C(c1ccccc1)c1ccccc1 [fragment 30, 2,4-Dinitrophenyl 2,2-diphenylacetate]	1.1

Please look at the items below and tell me isoTOP-ABPP reactivity ratio at lysine Q9Y5K5_K323 for each one, in order.
1. CCn1cc(C(=O)Oc2c(F)c(F)c(F)c(F)c2F)c(=O)c2ccc(C)nc21
2. O=C(CN1C(=O)c2ccccc2C1=O)Oc1c(F)c(F)c(F)c(F)c1F
3. O=C(Oc1ccc([N+](=O)[O-])cc1[N+](=O)[O-])c1cc(C(F)(F)F)cc(C(F)(F)F)c1
4. COc1cc(CCC(=O)Oc2ccc([N+](=O)[O-])cc2[N+](=O)[O-])cc(OC)c1OC
5. Cn1cc(CC(=O)Oc2ccc([N+](=O)[O-])cc2[N+](=O)[O-])c2ccccc21

1: 1.2; 2: 1.1; 3: 1.0; 4: 0.8; 5: 1.0

Give isoTOP-ABPP reactivity ratio at lysine Q9Y5K5_K323 for each listed item.
1. O=C(Oc1c(F)c(F)c(F)c(F)c1F)C1CCN(C(=O)OCc2ccccc2)CC1
2. O=C(CCc1cn(-c2ccccc2)nc1-c1ccccc1)Oc1ccc([N+](=O)[O-])cc1[N+](=O)[O-]

1: 0.8; 2: 1.1

Which measured isoTOP-ABPP reactivity ratio at lysine Q9Y5K5_K323 belongs to `O=C(CCc1coc2cc(F)ccc2c1=O)Oc1c(F)c(F)c(F)c(F)c1F` , tested on UCHL5 Ubiquitin carboxyl-terminal hydrolase isozyme L5 (Homo sapiens, UniProt Q9Y5K5)?
1.1

###

For each record, write down the corresponding isoTOP-ABPP ratio, lysine Q13617_K489.
- target.under.test: CUL2 Cullin-2 (Homo sapiens)
- Construct: isoTOP-ABPP experiments performed in cell lysates (in vitro); endogenous in cells; host or cells: soluble proteome of human cancer cell lines (MDA-MB-231, Ramos, Jurkat)
- Sequence (Q13617 whole entry): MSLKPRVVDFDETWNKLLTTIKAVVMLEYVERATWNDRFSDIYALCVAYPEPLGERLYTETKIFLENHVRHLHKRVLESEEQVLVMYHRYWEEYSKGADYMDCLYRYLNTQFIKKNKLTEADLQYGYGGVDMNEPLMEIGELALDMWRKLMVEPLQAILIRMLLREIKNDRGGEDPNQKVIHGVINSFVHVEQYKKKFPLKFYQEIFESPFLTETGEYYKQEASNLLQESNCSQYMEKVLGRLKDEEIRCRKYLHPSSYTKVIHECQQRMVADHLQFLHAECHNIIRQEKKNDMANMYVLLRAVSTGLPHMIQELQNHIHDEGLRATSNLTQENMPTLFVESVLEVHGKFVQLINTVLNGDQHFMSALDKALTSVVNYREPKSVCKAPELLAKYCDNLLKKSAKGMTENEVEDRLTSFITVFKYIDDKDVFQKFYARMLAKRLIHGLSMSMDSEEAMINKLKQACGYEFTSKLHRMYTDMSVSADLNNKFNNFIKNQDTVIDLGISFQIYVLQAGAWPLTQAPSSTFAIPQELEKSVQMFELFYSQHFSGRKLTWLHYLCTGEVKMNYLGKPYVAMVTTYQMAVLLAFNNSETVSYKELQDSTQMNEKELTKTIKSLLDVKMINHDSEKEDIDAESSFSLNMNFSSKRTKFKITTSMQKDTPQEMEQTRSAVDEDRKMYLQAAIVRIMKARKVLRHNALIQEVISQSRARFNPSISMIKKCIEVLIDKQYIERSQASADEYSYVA
- measurement.notes: competitive isoTOP-ABPP
- Assay type: binding
- condition: 50 uM_231_sol_in vitro

Look at each compound and report its isoTOP-ABPP ratio, lysine Q13617_K489.
1. O=C(CCc1ccc2c(c1)OCO2)Oc1ccc([N+](=O)[O-])cc1[N+](=O)[O-]
2. O=C(ON1C(=O)CCC1=O)c1cc(C(F)(F)F)cc(C(F)(F)F)c1
3. O=C(Oc1c(F)c(F)c(C(F)(F)F)c(F)c1F)c1cc(C(F)(F)F)cc(C(F)(F)F)c1
4. O=C(Oc1c(F)c(F)cc(F)c1F)c1cc(C(F)(F)F)cc(C(F)(F)F)c1
5. NC(=O)c1cc(C(F)(F)F)cc(C(F)(F)F)c1 [fragment 51, reference compound]
6. N#Cc1ccc(C(=O)Oc2ccc([N+](=O)[O-])cc2[N+](=O)[O-])cc1 [fragment 44, 2,4-Dinitrophenyl 4-cyanobenzoate]

1. 1.2
2. 1.0
3. 0.8
4. 0.8
5. 1.1
6. 0.8

###

- target.under.test: FAH Fumarylacetoacetase (Homo sapiens, UniProt P16930)
- Construct: isoTOP-ABPP experiments performed in cell lysates (in vitro); endogenous in cells; host or cells: soluble proteome of human cancer cell lines (MDA-MB-231; Ramos and Jurkat also prepared)
- Sequence (P16930 1-419): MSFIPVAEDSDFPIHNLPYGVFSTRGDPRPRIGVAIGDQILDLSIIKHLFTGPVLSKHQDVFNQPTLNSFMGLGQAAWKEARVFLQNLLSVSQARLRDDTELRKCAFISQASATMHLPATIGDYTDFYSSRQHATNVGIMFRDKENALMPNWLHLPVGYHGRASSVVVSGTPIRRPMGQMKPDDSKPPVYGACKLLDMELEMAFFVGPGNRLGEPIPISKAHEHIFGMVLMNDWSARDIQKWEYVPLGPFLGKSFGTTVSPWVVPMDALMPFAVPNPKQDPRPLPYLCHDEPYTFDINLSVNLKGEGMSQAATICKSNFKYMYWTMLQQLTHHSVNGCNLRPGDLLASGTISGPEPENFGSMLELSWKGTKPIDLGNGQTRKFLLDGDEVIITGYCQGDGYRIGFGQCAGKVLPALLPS
- measurement.notes: competitive isoTOP-ABPP
- Format: binding
- condition: 50 uM, 231 sol, in vitro
readout.kind: isoTOP-ABPP reactivity ratio at lysine P16930_K241

O=C(Oc1c(F)c(F)c(F)c(F)c1F)c1ccc2ccccc2n1	5.2
COc1cc(CCC(=O)Oc2ccc([N+](=O)[O-])cc2[N+](=O)[O-])cc(OC)c1OC	1.7
CCn1cc(C(=O)Oc2c(F)c(F)c(F)c(F)c2F)c(=O)c2ccc(C)nc21	2.5
O=C(CN1C(=O)c2ccccc2C1=O)Oc1c(F)c(F)c(F)c(F)c1F	1.8
Cn1cc(CC(=O)Oc2ccc([N+](=O)[O-])cc2[N+](=O)[O-])c2ccccc21	2.2
O=C(Oc1ccc([N+](=O)[O-])cc1[N+](=O)[O-])c1cc(C(F)(F)F)cc(C(F)(F)F)c1	20.0
O=C(CCc1cn(-c2ccccc2)nc1-c1ccccc1)Oc1ccc([N+](=O)[O-])cc1[N+](=O)[O-]	1.7
O=C(Oc1c(F)c(F)c(F)c(F)c1F)C1CCN(C(=O)OCc2ccccc2)CC1	1.1
O=C(Oc1ccc([N+](=O)[O-])cc1[N+](=O)[O-])C(c1ccccc1)c1ccccc1 [fragment 30, 2,4-Dinitrophenyl 2,2-diphenylacetate]	2.7

Read the next record carefully.
Would you kindly share the measured isoTOP-ABPP reactivity ratio at lysine P16930_K241 for `O=C(CCc1coc2cc(F)ccc2c1=O)Oc1c(F)c(F)c(F)c(F)c1F` ?
5.0

###

- target.under.test: PFKL 6-phosphofructokinase, liver type (Homo sapiens)
- Construct: isoTOP-ABPP experiments performed in cell lysates (in vitro); endogenous in cells; host or cells: soluble proteome of human cancer cell lines (MDA-MB-231; Ramos and Jurkat also prepared)
- Sequence (P17858 1-780): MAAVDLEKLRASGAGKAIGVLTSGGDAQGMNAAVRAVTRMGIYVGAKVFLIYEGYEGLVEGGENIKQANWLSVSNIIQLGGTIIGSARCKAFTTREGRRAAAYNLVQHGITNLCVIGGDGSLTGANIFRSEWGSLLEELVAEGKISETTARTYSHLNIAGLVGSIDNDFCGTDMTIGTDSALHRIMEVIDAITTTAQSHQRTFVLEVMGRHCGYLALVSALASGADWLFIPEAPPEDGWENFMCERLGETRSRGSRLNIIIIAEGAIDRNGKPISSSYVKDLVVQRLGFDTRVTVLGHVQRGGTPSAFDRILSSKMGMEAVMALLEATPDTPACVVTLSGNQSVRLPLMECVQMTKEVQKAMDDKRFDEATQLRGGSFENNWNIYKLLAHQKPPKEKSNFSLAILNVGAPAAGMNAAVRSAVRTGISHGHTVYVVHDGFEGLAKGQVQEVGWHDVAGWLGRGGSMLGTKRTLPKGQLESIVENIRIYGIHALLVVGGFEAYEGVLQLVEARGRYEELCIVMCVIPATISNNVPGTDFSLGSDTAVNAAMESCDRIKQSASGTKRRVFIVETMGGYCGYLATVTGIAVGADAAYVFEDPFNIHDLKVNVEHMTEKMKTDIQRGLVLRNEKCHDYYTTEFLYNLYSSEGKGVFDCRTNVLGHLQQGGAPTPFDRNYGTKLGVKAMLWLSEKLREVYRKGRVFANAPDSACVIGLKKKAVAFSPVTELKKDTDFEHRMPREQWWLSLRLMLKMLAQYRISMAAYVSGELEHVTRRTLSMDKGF
- measurement.notes: competitive isoTOP-ABPP
- Type: binding
- condition: 50 uM, in vitro, sol, 231
readout.kind: isoTOP-ABPP ratio (R) at liganded lysine P17858_K677
Answers are plain numbers.

Known results for compounds:
CC(C)(C)OC(=O)NCCCC(=O)Oc1ccc([N+](=O)[O-])cc1[N+](=O)[O-] [fragment 41]	5.6
O=C(CC12CC3CC(CC(C3)C1)C2)Oc1ccc([N+](=O)[O-])cc1[N+](=O)[O-] [fragment 38]	1.3
O=C(Oc1ccc([N+](=O)[O-])cc1[N+](=O)[O-])c1ccc2ccccc2n1 [fragment 35]	1.5
CC(=O)Oc1ccc([N+](=O)[O-])cc1[N+](=O)[O-] [fragment 43, 2,4-Dinitrophenyl acetate]	3.2

Return reported isoTOP-ABPP ratio (R) at liganded lysine P17858_K677 values for all items listed beneath this line.
1. O=C(Oc1ccc([N+](=O)[O-])cc1[N+](=O)[O-])c1ccccc1Nc1cccc(C(F)(F)F)c1 [fragment 40]
2. O=C(Oc1ccc([N+](=O)[O-])cc1[N+](=O)[O-])C1CCN(C(=O)OCc2ccccc2)CC1 [fragment 34]
3. O=C(Oc1ccc([N+](=O)[O-])cc1[N+](=O)[O-])c1ccc(Oc2ccccc2)cc1 [fragment 39, 2,4-Dinitrophenyl 4-phenoxybenzoate]

[0.9, 2.8, 1.3]
